Give solubility (g/100 g solution) for every item shown.
Procedure summary: xn = mol fraction of the nth substance listed, in the solute-free solvent
Assay setup: 323.15 K; x2 = 0.4
Enter a number only.

Query: Look up solubility (g/100 g solution) for this molecule: CCOc1ccccc1C(N)=O + CC#N + CC(C)O
Response: 19.2

Query: Look up solubility (g/100 g solution) for this molecule: Cl.NC(Cc1ccccc1)C(=O)OCc1ccccc1 (stereo not drawn) + CO + CC(C)=O
Response: 5.13

Query: Look up solubility (g/100 g solution) for this molecule: N#CCNC(=O)c1cnccc1C(F)(F)F + CCOC(C)=O + CCO
Response: 17.2

----------
Give solubility (g/100 g solution) for every item shown.
Procedure summary: xn = mol fraction of the nth substance listed, in the solute-free solvent
Assay setup: 293.15 K; x2 = 0.1
Enter a number only.

Query: Look up solubility (g/100 g solution) for this compound: Cc1c(Br)c(=O)n(C2CCCC2)c2nc(Cl)ncc12 + C1CCOC1 + CCO
Response: 1.07

Query: Look up solubility (g/100 g solution) for this compound: COC(=O)C(N)CS.Cl (centres undefined) + CCO + ClCCl
Response: 1.21

Query: Look up solubility (g/100 g solution) for this compound: CCOc1ccccc1C(N)=O + CC(C)O + CC#N
Response: 3.74

Query: Look up solubility (g/100 g solution) for this compound: Cl.NC(Cc1ccccc1)C(=O)OCc1ccccc1 (centres undefined) + CO + CC(C)=O
Response: 0.238

----------
Procedure summary: xn = mol fraction of the nth substance listed, in the solute-free solvent
Assay setup: 293.15 K; x2 = 0.2
Outcome measure: solubility (g/100 g solution)

Query: Look up solubility (g/100 g solution) for this compound: CCOC(=O)OC1=C(c2cc(C)ccc2C)C(=O)NC12CCC(OC)CC2 (centres undefined) + CO + O
Response: 0.0162

Query: Look up solubility (g/100 g solution) for this compound: COC(=O)C(N)CS.Cl (centres undefined) + CCO + ClCCl
Response: 2.46

Query: Look up solubility (g/100 g solution) for this compound: CCOC(=O)OC1=C(c2cc(C)ccc2C)C(=O)NC12CCC(OC)CC2 (centres undefined) + CC(C)=O + O
Response: 1.08

Query: Look up solubility (g/100 g solution) for this compound: CCOc1ccccc1C(N)=O + CC(C)O + CC#N
Response: 4.36

----------
Give solubility (g/100 g solution) for every item shown.
Procedure summary: xn = mol fraction of the nth substance listed, in the solute-free solvent
Assay setup: 283.15 K; x2 = 0.4
Enter a number only.

Query: Look up solubility (g/100 g solution) for this compound: Cc1c(Br)c(=O)n(C2CCCC2)c2nc(Cl)ncc12 + CC1=CC(=O)CC(C)(C)C1 + CC(C)O
Response: 0.401

Query: Look up solubility (g/100 g solution) for this compound: CCOC(=O)OC1=C(c2cc(C)ccc2C)C(=O)NC12CCC(OC)CC2 (centres undefined) + CC(C)O + O
Response: 2.99

Query: Look up solubility (g/100 g solution) for this compound: N#CCNC(=O)c1cnccc1C(F)(F)F + CCOC(C)=O + CCO
Response: 5.66

Query: Look up solubility (g/100 g solution) for this compound: Cl.N=C(N)NC(=N)N1CCOCC1 + O + CC(C)O
Response: 4.24
